Tested on: CD2F1 mice, L1210 leukemia ip, survival T/C
Test Summary: NCI In Vivo Anticancer Drug Screen. Data for tumor model L1210 Leukemia (intraperitoneal) in CD2F1 (CDF1) mice
Condition Label: endpoint: mean survival time; dose: 100.0 mg/kg/injection; schedule: Q01DX001 (ip); vehicle: saline with Tween-80; higher = longer survival
Inconclusive results and toxic doses are left out.
Parameter Measured: T/C

# example entries with known answers
>>> result_value("S=C(Nc1ccccn1)NC1CC2C=CC1C2 (stereo unspecified)")
"93 % of control"
>>> result_value("CC1CC(C)(C)N=C(C(Cc2ccccc2)Cc2ccccc2)O1 (stereo unspecified)")
"97 % of control"
>>> result_value("CCCCNC1=CC(=O)c2ccccc2C1=O")
"103 % of control"

Exercise: Query (molecule): O=[N+]([O-])c1ccc(C2Nc3cc(Cl)c(Cl)cc3S(=O)(=O)N2O)cc1 (stereo unspecified) ; field requested: T/C
Solution: 97 % of control

Exercise: Query (molecule): `Nc1ncnc2c1ncn2CCCCCO` ; field requested: T/C
Solution: 96 % of control

Exercise: Query (molecule): `c1ccc(N/N=C(/CC/C(=N\Nc2ccccc2)c2ccccc2)c2ccccc2)cc1` ; field requested: T/C
Solution: 96 % of control
